system: SF-295 CNS; test: NCI tumour cell line growth inhibition, 48 h
Catalogue of TGI values

Compound: COC(=O)c1sc2c(c1C(=O)OC)C(=NC(C)(C)C)SC2=NC(C)(C)C
Measured On: SF-295 CNS
Comparative Sign: =
TGI, µM: 36.6
--
Compound: CCCCCCCCCCCCCCCCCCOCC(C[N+]1(C)CCC(O)CC1)OCC (stereo not drawn)
Measured On: SF-295 CNS
Comparative Sign: =
TGI, µM: 17.9
--
Compound: NC(Cc1cccnn1)C(=O)O (stereo not drawn)
Measured On: SF-295 CNS
Comparative Sign: >
TGI, µM: 100
--
Compound: CN(C)c1cc2c(Nc3ccc4c(cnn4Cc4ccccc4)c3)ncnc2cn1
Measured On: SF-295 CNS
Comparative Sign: >
TGI, µM: 23.1
--
Compound: CC1(C)OC[C@H](COCOP2(=O)Oc3ccc4ccccc4c3-c3c(ccc4ccccc34)O2)O1
Measured On: SF-295 CNS
Comparative Sign: =
TGI, µM: 32.2
--
Compound: O=[N+]([O-])c1cccc(S(=O)(=O)N/N=C/c2cc(I)cc([N+](=O)[O-])c2O)c1
Measured On: SF-295 CNS
Comparative Sign: =
TGI, µM: 98.7
--
Compound: CC(=O)[CH-]C(=O)c1ccccc1.CC(=O)[CH-]C(=O)c1ccccc1.CC[C@H](/C=C/C(C)[C@H]1CCC2[C@@H]3CC=C4C[C@@H]([O-])CC[C@]4(C)C3CC[C@@]21C)C(C)C.CC[C@H](/C=C/C(C)[C@H]1CCC2[C@@H]3CC=C4C[C@@H]([O-])CC[C@]4(C)C3CC[C@@]21C)C(C)C.Cl.[Ti+4] (stereo partly drawn)
Measured On: SF-295 CNS
Comparative Sign: >
TGI, µM: 25

---

system: SN12C renal; assay: NCI tumour cell line growth inhibition, 48 h
Measurement Name: GI50

Compound: O=C(CSC(c1ccccc1)c1ccccc1)N/N=C/c1ccccc1Cl
Result: 2660 nM

Compound: Cc1nc2sc(C(=O)Nc3ccccc3)c(N)c2cc1C(O)c1ccccc1 (stereo not given)
Result: 460 nM

Compound: O=C(N=Nc1c(Cl)c(O)c2ccccc2c1O)C(=O)Nc1cccc(C(F)(F)F)c1
Result: 1770 nM

Compound: COC(=O)c1c2c(c(C)[n+]([O-])c1C)C(=O)C(NCc1ccc(F)cc1)=CC2=O
Result: 1170 nM

Compound: Cc1cc(-c2nc3n(c2/C=N/N=C(N)N)CCS3)c(C)s1
Result: 14900 nM

---

system: MDA-N; assay: NCI tumour cell line growth inhibition, 48 h

Compound: COc1cc2c(c(OC)c1OC)C(=O)[C@@H](O)[C@H]2NC(N)=O
TGI: > 100 µM
//
Compound: COc1ccc2nc3n(c2c1)C(c1c(F)cccc1F)SC3 (stereo not given)
TGI: > 100 µM
//
Compound: CC(C)(C)n1c(=O)n(-c2ccccc2)n(C(C)(C)C)c1=O
TGI: > 100 µM
//
Compound: CNCC(=O)NC(CO)C(=O)NC(CO)C(=O)NC1C(C(N)=O)OC(n2ccc(N)nc2=O)C(O)C1O (stereo not given)
TGI: > 50 µg/mL
//
Compound: O=c1[nH]c2ccc(Cl)cc2o1
TGI: > 100 µM

---

tested on: OVCAR-3 ovarian; assay: NCI tumour cell line growth inhibition, 48 h
Measurement Name: TGI (µM)

Compound: O=C1CC(Cc2n[nH]c3c2CCCC3)CC(=O)N1
Measured On: OVCAR-3 ovarian
Measurement Name: TGI
Unit Spec: µM
Comparative Sign: >
Numeric Readout: 100
--
Compound: O=S(O)CCCSSSCCCS(=O)O
Measured On: OVCAR-3 ovarian
Measurement Name: TGI
Unit Spec: µM
Comparative Sign: >
Numeric Readout: 100
--
Compound: CCC[n+]1cc2cc3c(cc2c2c1-c1cc4c(cc1C2)OCO4)OCO3 (tested in a mixture with another compound)
Measured On: OVCAR-3 ovarian
Measurement Name: TGI
Unit Spec: µM
Comparative Sign: =
Numeric Readout: 4.81
--
Compound: O=[N+]([O-])c1cccc(S(=O)(=O)N/N=C/c2cc(I)cc([N+](=O)[O-])c2O)c1
Measured On: OVCAR-3 ovarian
Measurement Name: TGI
Unit Spec: µM
Comparative Sign: =
Numeric Readout: 43.9
--
Compound: O=NN1CCN=C1c1ccc([N+](=O)[O-])cc1
Measured On: OVCAR-3 ovarian
Measurement Name: TGI
Unit Spec: µM
Comparative Sign: >
Numeric Readout: 100
--
Compound: C[C@@]1(C(=O)O)CCC[C@]2(C)C1CC[C@]13C[C@@](O)(CO)[C@](O)(CC[C@]12O)C3 (some centres not stated)
Measured On: OVCAR-3 ovarian
Measurement Name: TGI
Unit Spec: µM
Comparative Sign: >
Numeric Readout: 100
--
Compound: COC(=O)c1c2c(c(C)[n+]([O-])c1C)C(=O)C(NCc1ccc(F)cc1)=CC2=O
Measured On: OVCAR-3 ovarian
Measurement Name: TGI
Unit Spec: µM
Comparative Sign: =
Numeric Readout: 1.11

---

Catalogue of TGI values
system: DLD-1 colon; test: NCI tumour cell line growth inhibition, 48 h
Measurement Name: TGI

Molecule: CO/C=C1\OC(=O)C=C1OC
Measured On: DLD-1 colon
Result: > 100 µM

Molecule: CCCCCCCCC(C)CCCCCCCCC(=O)OCC(COP(=O)([O-])OCC[N+](C)(C)C)OC(=O)CCCCCCCCC(C)CCCCCCCC (stereo not drawn)
Measured On: DLD-1 colon
Result: > 100 µM

Molecule: CN(C)C(=S)/N=c1\ssc(=S)n1Cc1ccco1
Measured On: DLD-1 colon
Result: > 100 µM

---

system: SK-MEL-28 melanoma; assay: NCI tumour cell line growth inhibition, 48 h

Smiles Structure: O=C1C[C@@H]2[C@@H](c3ccccc3)[C@@H]3C(=O)c4ccccc4NC(=O)[C@H]3[C@]2(O)c2ccccc2N1
TGI: > 100 µM

Smiles Structure: O=[N+]([O-])c1cccc(-c2cn3c(n2)Cc2ccccc2C3)c1
TGI: > 100 µM

Smiles Structure: O=C(Cn1c2c(c3ccccc31)CCCC2)N1CCCCC1
TGI: > 100 µM

---

Catalogue of TGI values
test system: KM12 colon; experiment: NCI tumour cell line growth inhibition, 48 h

Compound: COc1cc([C@@H]2OC(=O)C3C2C(=O)O[C@H]3c2ccc(O)c(OC)c2)ccc1O (some centres not stated)
TGI: > 100 µM
--
Compound: Cc1ccc(N=Nc2c(O)ccc3n[nH]nc23)cc1
TGI: 37.9 µM
--
Compound: Cc1ccc(C)n2c1nc1cc3ccccc3cc12
TGI: > 100 µM
--
Compound: C(=C\c1ccncc1)/c1ccncc1
TGI: > 100 µM
--
Compound: O=C1CC(Cc2n[nH]c3c2CCCC3)CC(=O)N1
TGI: > 100 µM
--
Compound: COc1ccc(C(OCC2OC3(COC(c4ccccc4)(c4ccc(OC)cc4)c4ccc(OC)cc4)C(Oc4nc(=O)ccn43)C2O)(c2ccccc2)c2ccc(OC)cc2)cc1 (configuration not stated)
TGI: > 100 µM
--
Compound: C=CCC(N[C@H](CO)c1ccccc1)c1ccccn1 (some centres not stated)
TGI: > 100 µM
--
Compound: NNC(=O)CCc1ccc2ccc3ccccc3c2c1
TGI: > 100 µM
--
Compound: CC(C)(C)n1c(=O)n(-c2ccccc2)n(C(C)(C)C)c1=O
TGI: > 100 µM
--
Compound: COc1cc2c3c(n(CCN4CCOCC4)c(=O)c2cc1OC)-c1ccccc1C3=O
TGI: > 100 µM
--
Compound: Cc1ccnc2c(NC(C)CCCN)cc(O)c(O)c12 (configuration not stated)
TGI: > 100 µM
--
Compound: O=c1[nH]c2ccc(Cl)cc2o1
TGI: > 100 µM
--
Compound: O=C1C(Cl)=C(Cl)C(=O)N1c1ccc(F)cc1
TGI: 50.2 µM
--
Compound: COc1ccc(NC(=O)c2oc3cc(O)ccc3c(=O)c2C)c([N+](=O)[O-])c1
TGI: > 100 µM
--
Compound: COC(=O)c1ccc(NC(=O)c2ccc(NC3=C(Cl)C(=O)N(Cc4ccccc4)C3=O)cc2)cc1
TGI: > 100 µM
--
Compound: CCOC(=O)CC(=O)Nc1cccc2sc3ncccc3c(=O)c12
TGI: > 100 µM
--
Compound: CO/C=C1\OC(=O)C=C1OC
TGI: > 100 µM
--
Compound: C=CC(=O)Nc1ccccc1CC(c1c[nH]c2ccccc12)c1c[nH]c2ccccc12
TGI: 38.7 µM
--
Compound: CSC1(C(=O)O)C2CCC3C2CCC31 (configuration not stated)
TGI: > 100 µM
--
Compound: C=C1C(=O)O[C@@H]2CC(CO)=C([C@@H](C)CCCO)[C@@H](OC(=O)/C(C)=C\C)[C@H]12
TGI: 43.7 µM
--
Compound: Cc1ccc2c(c1)C=CC1(O2)N(c2ccccc2)C(=S)OC1(C)C (configuration not stated)
TGI: > 100 µM
--
Compound: CC(C)OC(=O)C1(C(C)C)CCc2ccc(C(=O)CCC(=O)O)cc21 (configuration not stated)
TGI: > 100 µM
--
Compound: CSCC(CO)NC(=O)/C=C/c1c(C)[nH]c(=O)[nH]c1=O (configuration not stated)
TGI: > 875 µM
--
Compound: O=[N+]([O-])c1ccc(C2SCc3nc4ccccc4n32)cc1 (configuration not stated)
TGI: > 100 µM
--
Compound: CC(=O)[CH-]C(=O)c1ccccc1.CC(=O)[CH-]C(=O)c1ccccc1.CC[C@H](/C=C/C(C)[C@H]1CCC2[C@@H]3CC=C4C[C@@H]([O-])CC[C@]4(C)C3CC[C@@]21C)C(C)C.CC[C@H](/C=C/C(C)[C@H]1CCC2[C@@H]3CC=C4C[C@@H]([O-])CC[C@]4(C)C3CC[C@@]21C)C(C)C.Cl.[Ti+4] (some centres not stated)
TGI: > 25 µM
--
Compound: COc1ccc(/C=N/N=C(\N)NO)cc1F
TGI: > 100 µM
--
Compound: COc1ccc2nc3n(c2c1)C(c1c(F)cccc1F)SC3 (configuration not stated)
TGI: > 100 µM
--
Compound: C=C1CCC2[C@](C)(CCC[C@]2(C)C(=O)O)[C@@H]1CCc1ccoc1 (some centres not stated)
TGI: 74.9 µM
--
Compound: COc1c(-c2ccc3c(c2)OCO3)oc2cc(O)cc(O)c2c1=O
TGI: > 100 µM
--
Compound: Cn1c2c(c3ccccc3c1=O)C(=O)c1ccccc1-2
TGI: > 100 µM
--
Compound: O=C(COC(=O)c1cccc2c(=O)c3ccccc3[nH]c12)Nc1ccc(Cl)cc1
TGI: > 100 µM
--
Compound: [Cl][Hg][c]1ccc2ccccc2c1
TGI: 22.6 µM
